Molecular target: T1, Cdh1-activated yeast APC/C (S. cerevisiae | S. cerevisiae …, UniProt P53197 1-566; P53886 1-1748; P09798 1-840; P38042 1-758; P53068 1-250)
T1 construct: Apc1 subunit of the APC/C, from yeast strain NHY13; Cdc16 subunit of the APC/C (Cdc16-TAP); Cdc27 subunit of the APC/C; Apc10/Doc1 subunit of the APC/C; only Apc1, Cdc16, Cdc27 and Apc10 are named; the yeast strain lacks endogenous Cdh1; TEV cleavage of the TAP tag may leave part of the tag on Cdc16; also called APC/C^Cdh1; not shown: 2xStrep-Tag II, N-terminal, kept; GFP, C-terminal, kept; …
Assay: fluorescence polarisation + other: single-molecule off-rate (SMOR) assay; inferred constants: kon from the KD of anisotropy and the koff of SMOR; KD for APC/C^Cdh1 from the dwell time with the kon of Cdh1 alone assumed
Details: both partners purified
Where no end group is shown, it is not given here.
assay_endpoint: Kd
Answer as a quantity: numeral, then unit.

# Kd of EQKPKRAALSDITNSFNKMNK-Cy5 [Cy5-labeled Hsl1 D box peptide] = 36 nM
